Measured values drawn from the DeepSol protein solubility set for this set.

- procedure.details: soluble on expression in E. coli; label from the status in PepcDB or PDB records

| macromolecule.sequence | soluble on expression in E. coli |
| --- | --- |
| GPGSMETAIQQDPVYVRLGVFRRLHGSNEVEWLMLRRINREMRPPDIPPISLKLPGKWTLLYERYKEAAIRTLWEETGITVDPTSVFPTAQLYQTSPKYYWRVPVRYFVAEVPHDVRVEGPQVVPTQYMRNWDVRLLRQSPDPIDRAWAQLADPITGCAWMKAPMIDELQKPLRGEKYMATRYTPPPYSNLQEVVGLGDGDQDTQNKETEAADPNA | not soluble |
| GNDIDYSVGGSVSDAVSEVTEYANAKKNDPYGSWYTGRKVGEIWGYRAEGLIQTQEEADAYNAEYDLSYISGKLWEPGDVKYIDLDGNKVIDRGDNRLVDGDMGDQTIIGNTTPRYQYTFNGYISWKGLSLSVMFQGVGKRDWVAGGAYFWGFGPYAQVTVFKEHMDYWRPDNPGAYYPKPYINSAGGVAPYQDKNIQRTDLYLQNAAYCRLKNLTLSYDLPNAWVHKAGLQKVQVFFSGENLLTFTKLKGMFDPEAIFSSNSYTSEGGKNYPMNRVLSLGFIVNL | not soluble |

###

- procedure.details: soluble on expression in E. coli; label from the status in PepcDB or PDB records
measured.metric: soluble on expression in E. coli

Before answering, review these 5 worked examples.
| macromolecule.sequence | soluble on expression in E. coli |
| --- | --- |
| MEPRVTQRKRPLDGCMGKITGITSDILKYDHKCFKLSLPAKFPEVCGSDEVFPDPDLLHVLPVAGSLQQSIDQCCLQLESLCRPGLLCAHPTLLFKLHSSMKNRPFFSLIYTYVKKTQQVRKRDRKPRGQVAAGPNPTSVMLEHHHHHH | soluble |
| MAHHHHHHMRRSVIRTRKEFLERKQHERVHEAIHARKEQFRSAVETATPLPGHLKKDALALKKFTELDDAQTRNLTTTVDDEYANAGQEDPHVLVTTSRNASQKLLEFAKEVRLIVPNAVRMNRGNLSVHQLMDAARKENYTDVLVLQESQGVPDSLIVSHLPLGPTVTFTIHNLVARHDIDGVGTMSEQYPHLVFENFSTKLGIRIKDVLRYLFPVPKADASRVLTFDNENDFISFRHHTFKKEKGKKQVELTEVGPRFELTPYRIVLGTLEMDDAETEWVLQPYMNTAKKRRLL | soluble |
| NATLKGLKLSERSTTEIQLLAEQAITVSKQEVKEFTYKVESNKQFEATVKIKADLKIDPTKAMSHIENIFKDDETKKKDAQNSLTMSMGQNEALEATFTYSPATQGIFGRASFDRFTSNIKLNTKLRIQVSSTSDLMKKLLENSLTSSLKDQSFDNEGVNLFPYTLFAL | not soluble |
| MNDIEAAFHQYFEIIDADTPELLKTVFDLRYRILCVHNVIPGFDTNNYPNELESDQYDSHSIHFLLRHRPTNTFIGTTRLILPNPLDPMDKFPTELNTHFYPGFVLDSSSRKHTTEVSRFAILSDFFKRKGERNMLSQSTEIGCKAQERRRFPHPMLGLVVGLIQLCARNNIYHLISAMEPALNKLLGFYSLQMNPIGPPADYHGLRTPYYLYLPDLLDRMYQDHRSLWELITDHGRIWPMNLACIHQKTLKTAYTDNVYISE | not soluble |
| GMQTLNDIYLAYLDSLNHQAFDELGTFVDDNVEHNGRPFGLSGYRDMLVKDFADIPDLRFEAEILVSDATRLAARLFFDCTPKSIFMDLPVNGRRVQFCEHVFYDFEQAKIRRVWSVLDKVAIERQLG | soluble |

Prompt line: Look at this sequence and give its reported soluble on expression in E. coli. "MGSSHHHHHHSQDPPAVHKLTKRIPLRRQVTVSAESSSSMNSNTPLVRITTRLSSTADTPMLAGVSEYELPEDPKWEFPRDKLTLGKPLGEGCFGQVVMAEAVGIDKDKPKEAVTVAVKMLKDDATEKDLSDLVSEMEMMKMIGKHKNIINLLGACTQDGPLYVIVEYASKGNLREYLRARRPPGMEYSYDINRVPEEQMTFKDLVSCTYQLARGMEYLASQKCIHRDLAARNVLVTENNVMKIADFGLARDINNIDYYKKTTNGRLPVKWMAPEALFDRVYTHQSDVWSFGVLMWEIFTLGGSPYPGIPVEELFKLLKEGHRMDKPANCTNELYMMMRDCWHAVPSQRPTFKQLVEDLDRILTLTTNEE"
Response line: soluble

###

- procedure.details: soluble on expression in E. coli; label from the status in PepcDB or PDB records
measured.metric: soluble on expression in E. coli

Before answering, review these 5 worked examples.
| macromolecule.sequence | observed.value |
| --- | --- |
| MGYLNNVTGYREDLLANRAIVKHGNFALLTPDGLVKNIIPGFENCDATILSTPKLGASFVDYLVTLHQNGGNQQGFGGEGIETFLYVISGNITAKAEGKTFALSEGGYLYCPPGSLMTFVNAQAEDSQIFLYKRRYVPVEGYAPWLVSGNASELERIHYEGMDDVILLDFLPKELGFDMNMHILSFAPGASHGYIETHVQEHGAYILSGQGVYNLDNNWIPVKKGDYIFMGAYSLQAGYGVGRGEAFSYIYSKDCNRDVEILEHHHHHH | not soluble |
| MRGSHHHHHHTDPALRADIIFYHPTFDTQWWIEALRKAIPQARVRAWKSGDNDSADYALVWHPPVEMLAGRDLKAVFALGAGVDSILSKLQAHPEMLNPSVPLFRLEDTGMGEQMQEYAVSQVLHWFRRFDDYRIQQNSSHWQPLPEYHREDFTIGILGAGVLGSKVAQSLQTWRFPLRCWSRTRKSWPGVQSFAGREELSAFLSQCRVLINLLPNTPETVGIINQQLLEKLPDGAYLLNLARGVHVVEDDLLAALDSGKVKGAMLDVFNREPLPPESPLWQHPRVTITPHVAAITRPAEAVEYISRTIAQLEKGERVCGQVDRARGYGLCGR | soluble |
| MRIEVKLLPLKDNPILPFNYNYEVYSQILEKVNSIEPTIAKLLSSPHGFWTFSRIIVRKRKILPDKGIEILSDDVSLYISSSNEDIIRAIAEAVEKSPEFKIGELSFLVGDIKAIKVKELGKENVFSTLSPIVVRTVKFEGNKLRHWDLYPHDELFMDRLRKVMILRYSEVMGETPKDRDFTIEVLKFKPTRLMVGSSYIRGSLMVFRYAGSEEIARFGYENGFGEKTGLGFGMVKLIE | soluble |
| MGSDKIHHHHHHMRSPVPRVAAIHDLSGFGRTSLTVAIPVLSAMGIQVCPMPTAMLSTHTSGFKGFSFIDLTAEMRRFFDHWKSLNIRFDAIYSGFLGSPDQVAIVAQCIDMFRTPDGFAVVDPVLGDNGELEPTMDMEMVHRMRWLVSKADIITPNFTEAALLLDEPYREHIDQPTLKDWLRRLTAMGPHVAVVTSVPVEGSRTTTSVVAYNRPHDRFWKVDCQYIPAHYPGTGDTFASVLTGSILQGDSLPIAIERAVQFVTMGIRATFGHNSPSREGILLERVLDTLRAPVTMSSYELLEE | not soluble |
| MSLERLIPIIAPQVPEKPLLNDSLGSGIGCSATLGRSTKFEDNFMCLKQDNVLFVGVFDGHAGHESALISAECFTKILPSFDFTNAIHQKNPEKDEENIQKFDFPKVENHLSPRRNHFRNVKTQENQIFGSQKIETKNIKNTQKIELKNSEKIELENSKGSENLNTKLIKTYLRMAFAQVNDELRNRKVKDGTTAVVVCLFENRKGAVAHVGDSLALLVGQTTSKLLTKMHRPSDKDEFYRMRKRNKSVSSDWKVDGKLSVSRSLGDFWCCGGMFDDADVSFFDLNDDALSIVLGCDGLWDYVDEGTVCNVVRELRDPVKAAKLLQDIAFASGSHDSISVIVVNVEPTEGHHHHHH | soluble |

Prompt line: Look at this sequence and give its reported soluble on expression in E. coli. "MKQVLVIKNERSSAKKIVSGLTQEGYFILKLHNENEGLNIIYEQDWDIIILDWDSLSISGPEICRQIRLVKTTPIIIVTDNISSKDCVAGLQAGADDYIRKPFAKEELVARVQAILRRSDCNQQKEINFFQFKDLFVDASSNIVKKGGKNLSLTKREYDLLVFLIKNKNTILSREMLLNQVWGYNIVVNPNVVDLYIGYVRKKLKCEKKERYIQTIHGRGYSMIE"
Response line: not soluble

Prompt line: Look at this sequence and give its reported soluble on expression in E. coli. "ASLSPQPDVSGELNTEALTCIVERLESEIIDGSWIHISYEETDLEMMPFLVAQANKKYPELNLKFVMSVHELVSSIKETRMEGVESARFLVNMGSSGIHISVVDFRVMDGKTSVILFEPAACSAFGPALLALRTKAALEREQLPDCYFAMVELDIQRSSSECGIFSLALAKKLQLEFMNLVKIHEDNICERLCGEEPFLPSDKADRYLPVSFYKHTQGAQRLNEYVE"
Response line: not soluble

Prompt line: Look at this sequence and give its reported soluble on expression in E. coli. "MSLATILIADDDPVTRTTLSIMLEDEDHEVYEAADSAETLDLLETTEPHVVFMDMVLPDCEAGEGITRVRRAAPAVTIIAMTGQPDTARFSAMARDAGCKECLIKPFEKNRVLALTRKVLAARGHKEGHHHHHH"
Response line: not soluble

Prompt line: Look at this sequence and give its reported soluble on expression in E. coli. "SLEIRRSDAPRLVDLVRRAQASVNRLATEREALTTRIDSVHGRSVDTALAAMQRRSAKLAGVAAMNPVHGPGLVVTLQDAQRDANGRFPRDASPDDLVVHQQDIEAVLNALWNAGAEAIQMQDQRIIAMSIARCVGNTLLLNGRTYSPPYTIAAIGDAAAMQAALAAAPLVTLYKQYVVRFGLGYCEEVHPDLQIVGYADPVRMHFAQPAGPLDY"
Response line: soluble

Prompt line: Look at this sequence and give its reported soluble on expression in E. coli. "MAEHDFETISSETLHTGAIFALRRDQVRMPGGGIVTREVVEHFGAVAIVAMDDNGNIPMVYQYRHTYGRRLWELPAGLLDVAGEPPHLTAARELREEVGLQASTWQVLVDLDTAPGFSDESVRVYLATGLREVGRPEAHHEEADMTMGWYPIAEAARRVLRGEIVNSIAIAGVLAVHAVTTGFAQPRPLDTEWIDRPTAFAARRAER"
Response line: soluble

Prompt line: Look at this sequence and give its reported soluble on expression in E. coli. "MDLSQGPVRAAQAAPQVLCTASVHHDHPHAIETLVEALGPVELELILLMASPQTDIPALLARAAAVLPGTRIVGCTTAGEISAAGYTEGEIVAIGMPRAYFKAQTMLIDDLTDYDAQAIIDRMIQTRNDLAAARPEWGHEFNFLLIDGLSTLEDRLVSDLAMGLGPVPLFGGSAGDGERFGTTFVFHEGRAHGNAAVLMQVRTRCPIQVFKTDHLIPTEKRMVVTGADPDRRLVHEINAEPAAREYARVLGKDPEQLTTFTFAAHPVVVRIGGQHHVRSIQRVAENGDLVFFSAIDEGLVLTLAEARDMREHLREELGRLAADGPPAVILGCDCLLRRMEAQQKQVLGALSDILRENRVVGFSTYGEQFNSMHVNQTLTGVAIYPPDDM"
Response line: soluble
